All values here come from ChEMBL document CHEMBL4513216.

PROTOCOL DETAILS: Toxicity liver stage against HepG2, at 10uM
Format: cell-based
Parameters: test concentration 10 uM, cell line HepG2-A16-CD81EGFP
CONDITION: human, HepG2-A16-CD81EGFP cells; read-out: INHIBITION
PARAMETER: cytotoxicity at 10 µM (%)
One number for each entry, in %.

// solved cases for cytotoxicity at 10 µM follow
COMPOUND	PARAMETER	UNIT SPEC	QUANTITATIVE RESULT
Cc1cccc(C(=O)N2C[C@@H]3C(CC(=O)NC(C)C)[C@@H]3C2)n1 (some centres not stated)	cytotoxicity at 10 µM	%	-3.69
Cc1cnn(CC2CN(Cc3cccnc3)CCO2)c1 (configuration not stated)	cytotoxicity at 10 µM	%	-3.27
O=C(NCCCN1CCCC1=O)c1nc(-c2ccc3[nH]ccc3c2)no1	cytotoxicity at 10 µM	%	-3.43
CCN(CC)C(=O)c1ccc(Cl)c(NC(=O)c2cc[nH]n2)c1	cytotoxicity at 10 µM	%	7.86
CCCN1CCN(C(=O)c2cccc3cccnc23)[C@H]2CS(=O)(=O)C[C@H]21	cytotoxicity at 10 µM	%	4.36

Look up cytotoxicity at 10 µM for the entries below, preserving their order.
1. Cn1cc(CCC(=O)N2C[C@@H]3CC[C@H]2CN(Cc2ccccc2)C3)cn1
2. CO[C@@H]1CCN(Cc2nccs2)C[C@@H]1Cc1ccccc1
3. Fc1ccc(CNCc2nnc3n2CC(C(F)(F)F)CC3)c(F)c1 (configuration not stated)
4. O=c1ncn(-c2ccc(F)cc2)c2ncccc12
5. c1coc(CN2CCn3c(CN4CCOCC4)nnc3C2)c1
6. CC(C(=O)N1CCCC1)N1CCN(c2ncc(Cl)cn2)CC1 (configuration not stated)
7. Cc1cc(NC(C)C(=O)NCc2ccccc2)nc(-c2ccncc2)n1 (configuration not stated)
8. CC(C)CN1CCN(C(=O)c2[nH]nnc2Nc2ccccc2F)CC1

1. -1.97
2. -69.5
3. 0.411
4. 0.946
5. 9.1
6. -3.34
7. 0.563
8. 18.7

Look up cytotoxicity at 10 µM for the entries below, preserving their order.
1. CC(O)CN1CCC(CNCc2cccc(OC(F)(F)F)c2)CC1 (configuration not stated)
2. O=S(=O)(NCC1(c2cccs2)CCCC1)c1cccnc1
3. CC(C)C(C)NC(=O)CN1CCSCC1 (configuration not stated)
4. CCOCCCNC(=O)C1(C)CCC(=O)N1c1cc(OC)ccc1OC (configuration not stated)
5. CC(C)N(C(=O)CN(C)C1CCc2ccccc21)C(C)C (configuration not stated)
6. O=C(Nc1ccc2c(c1)OC1(CCCC1)O2)c1ccc(=O)[nH]n1

[-7.95, -2.56, -0.662, 0.957, -9.3, 0.887]
